Hey, just so you know, these numbers are from paper PMC4552634.

Tested on: P. falciparum stage V gametocytes
Method: microbe, parasite or virus in culture
Set-up: BacTiter-Glo ATP luminescence viability of purified stage V gametocytes in 384-well plates, per cent inhibition versus DMSO
Assay Setup: Plasmodium falciparum, 48 h, read-out: % Inhibition
# cutoff 50% applies to inhibition at 5 µM; >= gives Condition met, < gives Condition not met

# example entries with known answers
{"columns": ["Compound", "Category"],
 "data": [
  ["CCOC(=O)c1cnc2c(OC)cc(OC)c(Cl)c2c1Nc1cccc(C)c1C [TCMDC-142242]", "Condition met"],
  ["CCOC(=O)c1cnc2c(OC)cc(OC)c(Cl)c2c1Nc1ccccc1 [TCMDC-142240]", "Condition not met"]
]}

Inquiry: Is inhibition at 5 µM for CC(C)OC(=O)c1ccccc1S(N)(=O)=O [TCMDC-142262] at or above 50%?
Reply text: Condition not met

Inquiry: Is inhibition at 5 µM for N[C@@H](Cc1cc(I)c(Oc2ccc(O)c(C(=O)O)c2)c(I)c1)C(=O)O [TCMDC-142341] at or above 50%?
Reply text: Condition not met

Inquiry: Is inhibition at 5 µM for CC1(C)N=C(N)N=C(N)N1c1ccc(Cl)c(Cl)c1 [TCMDC-142180] at or above 50%?
Reply text: Condition met

Inquiry: Is inhibition at 5 µM for Cc1ccccc1C1=CCN(CCCN2c3ccccc3Sc3ccc(Cl)cc32)CC1 [TCMDC-142249] at or above 50%?
Reply text: Condition met

Inquiry: Is inhibition at 5 µM for O=c1c(Br)ccccc1Br [TCMDC-142246] at or above 50%?
Reply text: Condition met

---

Tested on: P. falciparum stage V gametocytes
Method: Gametocytocidal ATP bioluminescence assay (single point 5 μM and 1 μM, dose-response)
Format: cell-based, Plasmodium falciparum
Assay Setup: Plasmodium falciparum; P. falciparum gametocytes; average; read-out: IC50 Pf Gametocytes average, IC50 (µM) average
Measurement Type: IC50 (µM)
# unit: µM | format: bare number

The examples below pair each entry with its known result.
{"columns": ["Compound", "Unit Abbreviation", "IC50"],
 "data": [
  ["CN(C)CCNC(=O)c1ccc(-c2cnc3ccc(NCc4ccc(Cl)c(Cl)c4)nn23)cc1", "µM", 0.33],
  ["COc1cc2nc(N3CCC(CNCc4ccc(-c5ccc(C(F)(F)F)cc5)cc4)CC3)nc(N)c2cc1OC", "µM", 0.0177],
  ["CN1c2ccc([N+](=O)[O-])cc2C(C)(C)C12C=Cc1cc(Br)cc([N+](=O)[O-])c1O2 (stereo not drawn)", "µM", 1.09],
  ["S=C(NN=Cc1ccccn1)Nc1ccc(Cl)c(Cl)c1", "µM", 0.07],
  ["c1ccc2c(NCCCCCCNc3ccnc4ccccc34)ccnc2c1", "µM", 0.96]
]}

Inquiry: Hello, please tell me recorded IC50 for this one: C=CCN(C(=O)c1ccc(Cl)c([N+](=O)[O-])c1)c1nc(-c2ccccc2)cs1
Reply text: 0.11

---

# % Control luminiscence per record follows
Test system: luciferase reaction (BacTiter-Glo)
Method: Interference assay (inhibition of the BacTiter-Glo luciferase reaction)
Type: biochemical
Design: concentration or dose not given beside the values
Assay Setup: ATP interference assay
# unit: % | format: bare number

{"columns": ["Smiles Representation", "Unit Abbreviation", "Measurement"],
 "data": [
  ["CC(C)CNCc1cccc(-c2ccc(CN(CCCN3CCN(C)CC3)C(=O)/C=C/c3ccccc3)cc2)c1", "%", 100],
  ["COc1cc2c(cc1CCNCCCCNCCc1cc3c(cc1OC)CCCC3)CCCC2", "%", 85],
  ["O=C(NCCCCN1CCC(c2ccc3c(c2OCCO)CCCC3)CC1)c1ccc2oc(-c3ccc(C(F)(F)F)cc3)cc2c1", "%", 97],
  ["COc1ccc(OC)c(-c2cccc(-c3cccc(NC(=O)c4ccc([N+](=O)[O-])o4)c3)n2)c1", "%", 100]
]}

Inquiry: Hello, please tell me recorded % Control luminiscence for this one: COc1cc2nc(NCC3CCN(c4nc(N)c5cc(OC)c(OC)cc5n4)CC3)nc(N)c2cc1OC
Reply text: 98

Inquiry: Hello, please tell me recorded % Control luminiscence for this one: CCCOc1ccc(CCNCCCCNCCc2ccc(OCCC)c3ccccc23)c2ccccc12
Reply text: 100

Inquiry: Hello, please tell me recorded % Control luminiscence for this one: c1cc(CN2CCC(CCN3CCCCC3)CC2)cc(-c2cccc(-c3nc4ccccc4[nH]3)c2)c1
Reply text: 100

Inquiry: Hello, please tell me recorded % Control luminiscence for this one: O=C(Nc1cccc(-c2cccc(-c3ccc(F)cc3)n2)c1)c1ccc([N+](=O)[O-])o1
Reply text: 100

Inquiry: Hello, please tell me recorded % Control luminiscence for this one: Cl.c1ccc2c(NCCCCCCNc3c4ccccc4nc4ccccc34)c3ccccc3nc2c1
Reply text: 100

---

Method: Cytotoxicity in HepG2 cells (intracellular ATP, ATPlite, 48 h)
Type: cell-based, human
Assay Setup: human, HepG2 cells, HepG2, 48 h exposure, intracellular ATP; read-out: IC50 (μM) Cytotoxicity HepG2
Measurement Type: IC50 at 48 h (µM)
# unit: µM | format: bare number

The examples below pair each entry with its known result.
{"columns": ["Compound", "IC50 at 48 h / µM"],
 "data": [
  ["c1cc(CN2CCC(CCN3CCCCC3)CC2)cc(-c2cccc(-c3nc4ccccc4[nH]3)c2)c1 [TCMDC-133920]", 13],
  ["c1cc(CNCCN2CCNCC2)cc(-c2cccc(-c3nc4ccccc4[nH]3)c2)c1 [TCMDC-132859]", 19]
]}

Inquiry: Hello, please tell me recorded IC50 at 48 h for this one: CCC1CN2CCc3cc(OC)c(OC)cc3C2CC1CC1NCCc2cc(OC)c(OC)cc21 (stereo not shown) [TCMDC-125849]
Reply text: 18

Inquiry: Hello, please tell me recorded IC50 at 48 h for this one: FC(F)(F)c1ccc2[nH]c(-c3ccc(-c4cccc(CNCCN5CCNCC5)c4)cc3)nc2c1 [TCMDC-132864]
Reply text: 18

Inquiry: Hello, please tell me recorded IC50 at 48 h for this one: FC(F)(F)c1ccc2[nH]c(-c3cccc(-c4ccc(CNCCN5CCNCC5)cc4)c3)nc2c1 [TCMDC-132872]
Reply text: 13

Inquiry: Hello, please tell me recorded IC50 at 48 h for this one: NC1CCN(Cc2ccc(-c3ccc(-c4nc5cc(F)ccc5[nH]4)cc3)cc2)C1 (stereo not shown) [TCMDC-133872]
Reply text: 7

---

Method: Cytotoxicity in HepG2 cells (intracellular ATP, ATPlite, 48 h)
Format: cell-based, human
Assay Setup: human, HepG2 cells; IC50 per ratio column head; unit inferred; read-out: Cytotoxicity in HepG2
# IC50 at 48 h per record follows
# unit: µM | format: bare number

{"columns": ["Molecule", "Measurement"],
 "data": [
  ["Fc1ccc2[nH]c(-c3cccc(-c4ccc(CN5CCC(CCN6CCCCC6)CC5)cc4)c3)nc2c1", 5.2],
  ["Oc1c(C(Nc2nc3ccccc3s2)c2ccc(OC(F)F)cc2)ccc2cccnc12 (centres unmarked)", 24.1],
  ["CCCCN(CCCC)C(=NC(=N)NCc1ccc(Cl)c(Cl)c1)NCCCCCCNC(=NC(=N)NCc1ccc(Cl)c(Cl)c1)N(CCCC)CCCC", 12.4],
  ["CCOc1ccc2nc3cc(NC(=O)c4ccco4)ccc3c(N)c2c1", 10.3],
  ["Cc1cccc2nc(-c3ccc(-c4ccc(CNCc5ccc(CN)cc5)cc4)s3)[nH]c12", 24]
]}

Inquiry: Hello, please tell me recorded IC50 at 48 h for this one: COc1ccc(CNC2Cc3ccccc3C2)cc1-c1ccc(OC)c(S(=O)(=O)NCCN2CCCC2)c1
Reply text: 16.6

Inquiry: Hello, please tell me recorded IC50 at 48 h for this one: CC(C)(C)c1ccc(CN2CCC(CNC(=O)c3cc(-c4ccccc4Cl)cs3)C2)cc1 (centres unmarked)
Reply text: 8.3

Inquiry: Hello, please tell me recorded IC50 at 48 h for this one: Cc1c(Cn2ncc(N3CCC(N)CC3)c(Cl)c2=O)cccc1NC(=O)Nc1ccc(-c2ccccc2)cc1
Reply text: 14.5

Inquiry: Hello, please tell me recorded IC50 at 48 h for this one: CCN(CC)C(=NCCCCCCN=C(NC(=N)c1ccc(Cl)cc1)N(CC)CC)NC(=N)c1ccc(Cl)cc1
Reply text: 43.6

Inquiry: Hello, please tell me recorded IC50 at 48 h for this one: FC(F)(F)c1ccc2[nH]c(-c3ccc(-c4cccc(CN5CCC(CCN6CCCCC6)CC5)c4)cc3)nc2c1
Reply text: 3.4

---

Method: Cytotoxicity in HepG2 cells (intracellular ATP, ATPlite, 48 h)
Format: cell-based, human
Assay Setup: human, HepG2 cells; IC50 per ratio column head; unit inferred; read-out: Cytotoxicity in HepG2
Measurement Type: IC50 at 48 h

{"columns": ["Smiles Representation", "Measurement Type", "Measurement"],
 "data": [
  ["CCN(CC)C(=NC(=N)NCCCCCCNC(=N)N=C(Nc1ccc(Cl)cc1)N(CC)CC)Nc1ccc(Cl)cc1", "IC50 at 48 h", "> 25 µM"],
  ["COc1cc2nc(N3CCC(CNCc4ccc(-c5ccc(C(F)(F)F)cc5)cc4)CC3)nc(N)c2cc1OC", "IC50 at 48 h", "< 1.56 µM"],
  ["c1cc(C2=N[C@H]3CCCC[C@@H]3N2)ccc1OCCCOc1ccc(C2=N[C@@H]3CCCC[C@H]3N2)cc1", "IC50 at 48 h", "> 25 µM"],
  ["N=C(N)Nc1nc(-c2ccc(NC(=O)Nc3cccc(-c4csc(NC(=N)N)n4)c3)cc2)cs1", "IC50 at 48 h", "> 25 µM"],
  ["COc1cc(NC(=O)c2sc(-c3ccc(Cl)cc3)cc2NC(=O)c2cccnc2)ccc1OCCN1CCCC1", "IC50 at 48 h", "> 25 µM"]
]}

Inquiry: Hello, please tell me recorded IC50 at 48 h for this one: CC(C)CCNC(=N)Nc1ccc(OCCCOc2ccc(NC(=N)NCCC(C)C)cc2)cc1
Reply text: > 25 µM
